Record form. Attribute: IC50. Fill in for each entry.
- Assay System: His6-ERα298-554 Y537S mutant (ERα ligand-binding domain) (Homo sapiens (Human), UniProt P03372, Y537S)
- Sequence (P03372 298-554 Y537S): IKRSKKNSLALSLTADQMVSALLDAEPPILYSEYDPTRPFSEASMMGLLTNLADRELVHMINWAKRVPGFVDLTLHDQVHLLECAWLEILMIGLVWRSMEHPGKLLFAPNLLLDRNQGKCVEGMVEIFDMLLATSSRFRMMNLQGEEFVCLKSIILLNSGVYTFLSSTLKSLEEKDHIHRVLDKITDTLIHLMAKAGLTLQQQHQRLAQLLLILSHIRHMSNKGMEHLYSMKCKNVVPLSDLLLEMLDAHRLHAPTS
- Procedure Details: Test A: biochemical antagonist activity, LanthaScreen TR-FRET ERα coactivator assay, Y537S mutant
- Test Conditions: protocol with 3 nM estradiol; read-out: Antagonism Y537S IC50
Give just the number in nM; leave the unit off.

Memo: `Cc1cc(C2=C(c3ccc(O[C@H]4CCN(CCCF)C4)cc3)c3ccc(O)cc3SCC2)ccc1Cl` , reported IC50: 19

Memo: `O=S1(=O)CCC(c2ccc(Cl)cc2F)=C(c2ccc(O[C@H]3CCN(CCCF)C3)cc2)c2ccc(O)cc21` , reported IC50: 70

Memo: `Oc1ccc2c(c1)SCC(c1ccc(F)cc1Cl)=C2c1ccc(O[C@H]2CCN(CCCF)C2)cc1` , reported IC50: 9

Memo: `Oc1ccc2c(c1)SCC(c1ccc(Cl)cc1Cl)=C2c1ccc(O[C@H]2CCN(CCCF)C2)cc1` , reported IC50: 19

Memo: `Oc1ccc2c(c1Cl)OCCC(c1cccc3[nH]ccc13)=C2c1ccc(O[C@H]2CCN(CCCF)C2)cc1` , reported IC50: 1240

Memo: `Oc1ccc2c(c1F)CCCC(c1ccc(Cl)cc1Cl)=C2c1ccc(O[C@H]2CCN(CCCF)C2)nc1` , reported IC50: 3

Memo: `CCOc1ccc(C2=C(c3ccc(O[C@H]4CCN(CCCF)C4)cc3)c3ccc(O)cc3SCC2)c(F)n1` , reported IC50: 22

Memo: `Oc1ccc2c(c1)SCC(c1ccc3c(c1)OC(F)(F)O3)=C2c1ccc(O[C@H]2CCN(CCCF)C2)cc1` , reported IC50: 59

Memo: `CC1(C)Cc2cc(C3=C(c4ccc(O[C@H]5CCN(CCCF)C5)cc4)c4ccc(O)cc4SCC3)ccc2N1` , reported IC50: 6

Memo: `Oc1ccc2c(c1F)OCCC(c1ccc3c(c1)NCC3)=C2c1ccc(O[C@H]2CCN(CCCF)C2)cc1` , reported IC50: 334

Memo: `Oc1ccc2c(c1)OCCC(c1ccc(Cl)cc1Cl)=C2c1ccc(O[C@H]2CCN(CCCF)C2)cc1` , reported IC50: 51

Memo: `Oc1ccc2c(c1)C(c1ccc(O[C@H]3CCN(CCCF)C3)cc1)=C(c1cccc(F)c1Cl)CCS2` , reported IC50: 82

Memo: `Oc1ccc2c(c1)SCCC(c1ccc(OC(F)F)c(F)c1)=C2c1ccc(O[C@H]2CCN(CCCF)C2)cc1` , reported IC50: 32

Memo: `Oc1ccc2c(c1)SCC(c1ccc3c(c1)CCN3)=C2c1ccc(O[C@H]2CCN(CCCF)C2)cc1` , reported IC50: 21

Memo: `Oc1ccc2c(c1Cl)OCCC(c1ccc3c(c1)NCC3)=C2c1ccc(O[C@H]2CCN(CCCF)C2)cc1` , reported IC50: 945
